target-system: T1, His-tagged CEACAM1 (human, UniProt P13688 35-428)
T1 construct: 45 kDa SPR analyte; also called CEACAM1-HIS; CEACAM1 analyte
T1 sequence: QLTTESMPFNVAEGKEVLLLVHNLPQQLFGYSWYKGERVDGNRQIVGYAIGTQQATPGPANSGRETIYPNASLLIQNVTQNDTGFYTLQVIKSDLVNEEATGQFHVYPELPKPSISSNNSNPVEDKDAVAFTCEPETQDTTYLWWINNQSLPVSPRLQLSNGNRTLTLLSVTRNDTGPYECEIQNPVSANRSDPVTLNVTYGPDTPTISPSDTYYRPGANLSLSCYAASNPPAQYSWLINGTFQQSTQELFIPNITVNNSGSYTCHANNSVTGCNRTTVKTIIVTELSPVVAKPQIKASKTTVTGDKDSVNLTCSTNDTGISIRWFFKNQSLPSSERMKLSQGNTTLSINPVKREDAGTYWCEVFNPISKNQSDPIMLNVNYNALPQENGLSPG
protocol-text: SPR single-cycle, supernatant IgG captured
Items are presented alongside their recorded kon.
Numbers only; they are read as M⁻¹ s⁻¹.

Past entries and their recorded results:
[
  {
    "binder": "CP09D03/Vκ8 S29A (antibody, IgG4, V domains shown, IgG4 (S241P), kappa) VH: EVQLLESGGGLVQPGGSLRLSCAASGFTFSSHAISWVRQAPGKGLEWVATISSGGTYTYYPDSVKGRFTISRDNSKNTLYLQMNSLKAEDTAMYYCARHDFDYDAAWFAYWGQGTLVTVSS VL: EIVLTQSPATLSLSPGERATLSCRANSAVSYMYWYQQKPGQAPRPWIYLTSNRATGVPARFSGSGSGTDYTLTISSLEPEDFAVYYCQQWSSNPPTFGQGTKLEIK",
    "assay-readout": "kon",
    "quantity-unit": "M⁻¹ s⁻¹",
    "measurement": 110000
  },
  {
    "binder": "CP09B03/Vκ8 S29A (antibody, IgG4, V domains shown, IgG4 (S241P), kappa) VH: EVQLLESGGGLVQPGGSLRLSCAASGFTFNAHAISWVRQAPGKGLEWVATISSGGTYTYYPDSVKGRFTISRDNSKNTLYLQMNSLKAEDTAMYYCARHDFDYDAAWFAYWGQGTLVTVSS VL: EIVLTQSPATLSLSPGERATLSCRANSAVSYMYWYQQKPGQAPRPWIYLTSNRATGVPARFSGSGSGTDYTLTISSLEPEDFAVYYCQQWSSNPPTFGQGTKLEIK",
    "assay-readout": "kon",
    "quantity-unit": "M⁻¹ s⁻¹",
    "measurement": 150000
  }
]

Please report kon for the following binder: CP08G10/Vκ8 S29A (antibody, IgG4, V domains shown, IgG4 (S241P), kappa) VH: EVQLLESGGGLVQPGGSLRLSCAASGFIFSSHGMSWVRQAPGKGLEWVATISSGGTYTYYPDSVKGRFTISRDNSKNTLYLQMNSLKAEDTAMYYCARHDFDYFPAWFAFWGQGTLVTVSS VL: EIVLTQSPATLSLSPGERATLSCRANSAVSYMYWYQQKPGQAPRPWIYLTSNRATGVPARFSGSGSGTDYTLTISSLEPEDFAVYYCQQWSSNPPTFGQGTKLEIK
87000
